Hi there, I'd appreciate the recorded inhibition at 1 µM for every entry that follows.
Biological target: γ-secretase (Homo sapiens)
Test: Screening for γ-secretase-modulating activity in SKNBE2 cells carrying APP 695 wild type (assay of Citron et al 1997)
Type: cell-based
Details: SKNBE2, @ 1 uM; SKNBE2 cells carrying the APP 695 wild type
Give your result in % as a bare value.

-- ask Complete the entry with inhibition at 1 µM for CC(C)CCN1C(c2cc(-c3ccc(C(F)(F)F)cc3)cc(C(F)(CC(C)C)C(=O)O)c2)CCCC1C(F)(F)F (stereo not shown)
-- reply 0

-- ask Complete the entry with inhibition at 1 µM for CC(C)CC(C(=O)O)c1cc(-c2ccc(C(F)(F)F)cc2)cc(C2CCCN(C(c3ccccc3)c3ccccc3)C2)c1 (stereo not shown)
-- reply 80

-- ask Complete the entry with inhibition at 1 µM for CC(C)CC(C(=O)O)c1cc(-c2ccc(C(F)(F)F)cc2)cc(C2CCCN(Cc3cc(C(C)(C)C)cc(C(C)(C)C)c3)C2)c1 (stereo not shown)
-- reply 58

-- ask Complete the entry with inhibition at 1 µM for CC(C)CC(C(=O)O)c1cc(-c2ccc(C(F)(F)F)cc2)cc(N2CCN(c3ccc(C(F)(F)F)cc3)CC2)c1 (stereo not shown)
-- reply 63

-- ask Complete the entry with inhibition at 1 µM for CC(C)CC(C(=O)O)c1cc(-c2ccc(C(F)(F)F)cc2)cc(C2CCN(c3ccc(C(F)(F)F)cc3)CC2)c1 (stereo not shown)
-- reply 6

-- ask Complete the entry with inhibition at 1 µM for CC(C)CC(C(=O)O)c1cc(-c2ccc(C(F)(F)F)cc2)cc(N2CCNCC2)c1 (stereo not shown)
-- reply 5

-- ask Complete the entry with inhibition at 1 µM for CC(C)CC(C(=O)O)c1cc(-c2ccc(C(F)(F)F)cc2)cc(C2CCCC(C)N2)c1 (stereo not shown)
-- reply 0

Source of measurements: patent US8252935B2
